tested target: DENV NS2B-NS3 protease (Dengue virus type 2, UniProt P29990)
Construct: plasmid construct CF40-Gly-NS3pro185; made in house; host or cells: E. coli
Sequence (P29990 1476-1653): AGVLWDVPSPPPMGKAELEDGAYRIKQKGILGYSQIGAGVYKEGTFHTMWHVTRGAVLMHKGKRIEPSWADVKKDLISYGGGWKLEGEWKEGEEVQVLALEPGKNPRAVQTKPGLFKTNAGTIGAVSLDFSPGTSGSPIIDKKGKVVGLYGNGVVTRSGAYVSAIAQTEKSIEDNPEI
test description: NS2B-NS3 protease steady-state kinetic inhibition assay (Boc-GRR-AMC substrate, Dynafit global fit)
Format: biochemical, DEN2V (dengue virus serotype 2)
test context: Inhibition constant Ki2 (binding to enzyme-substrate ES complex), 100 nM NS2B-NS3, cleavage buffer pH 9.5, 25° C., two inhibitor concentrations
outcome measure: pKi
Friendly reminder that pKi comes from taking -log10 of the concentration in mol/L.

Query block: Reported pKi for `c1ccc(CSc2nnc3nc4c5ccccc5c5ccccc5c4nn23)cc1` : what is it?
Result block: 4.68

---

tested target: DENV NS2B-NS3 protease (Dengue virus type 2)
Construct: plasmid construct CF40-Gly-NS3pro185; made in house; host or cells: E. coli
test description: NS2B-NS3 protease steady-state kinetic inhibition assay (Boc-GRR-AMC substrate, Dynafit global fit)
Format: biochemical, DEN2V (dengue virus serotype 2)
test context: 100 nM NS2B-NS3, cleavage buffer pH 9.5, 25° C., two inhibitor concentrations; read-out: Inhibition constant Ki3 (binding to ES2 complex)
outcome measure: Ki (µM)
Response body: numeric value in µM, unit text excluded.

Query block: For the record `O=C(NNC(=NS(=O)(=O)c1ccccc1)NNC(=O)c1cccc(Cl)c1)c1cccc(Cl)c1` , what value of Ki is listed for DENV NS2B-NS3 protease (Dengue virus type 2)?
Result block: 64

Query block: // fetch DENV NS2B-NS3 protease (Dengue virus type 2) Ki for `Cc1nn(-c2ccccc2)nc1C(=O)Nc1nnc(Sc2ccnc3cc(Cl)ccc23)s1`
Result block: 14

---

Would you kindly list Ki for each of these compounds?
tested target: DENV NS2B-NS3 protease (Dengue virus type 2)
Construct: plasmid construct CF40-Gly-NS3pro185; made in house; host or cells: E. coli
test description: NS2B-NS3 protease steady-state kinetic inhibition assay (Boc-GRR-AMC substrate, Dynafit global fit)
Assay type: biochemical, DEN2V (dengue virus serotype 2)
test context: 100 nM NS2B-NS3, cleavage buffer pH 9.5, 25° C., two inhibitor concentrations; read-out: Inhibition constant Ki1 (competitive component, binding to enzyme)
Express your answer in µM, writing the number without its unit.

Query block: Dear colleague, I am looking for the recorded Ki of the following compound: `Cc1ccn2c(=O)cc(COc3cc(NC(=O)Nc4ccc5c(c4)OCCO5)ccc3C)nc2c1`
Result block: 39

Query block: I would be grateful if you could share the reported Ki for `Cc1ccc(-n2ncc3c2CC(C)(C)C[C@@H]3NC(=O)c2cn(C)c3ccccc3c2=O)cc1` .
Result block: 288

Query block: Quick one: Ki of `c1ccc2c(-c3nnc(-c4ccc5nccnc5c4)o3)cccc2c1` ?
Result block: 95

Query block: Would you mind telling me what Ki value was observed for `O=C1Cc2ccc(F)cc2C[C@@H]1C1=Cc2ccc(F)cc2CC1` ?
Result block: 85

Query block: Can you look up the measured Ki of `Cc1nn(-c2ccccc2)nc1C(=O)Nc1nnc(Sc2ccnc3cc(Cl)ccc23)s1` for me?
Result block: 60

Query block: Fill in the blank: the reported Ki of `Cc1ccc(S(=O)(=O)Nc2ccc(Cn3cnc(-c4nc(-c5cccc(C)c5)no4)c3)cc2)cc1` is ____.
Result block: 106

---

tested target: DENV NS2B-NS3 protease (Dengue virus type 2, UniProt P29990)
Construct: plasmid construct CF40-Gly-NS3pro185; made in house; host or cells: E. coli
test description: NS2B-NS3 protease steady-state kinetic inhibition assay (Boc-GRR-AMC substrate, Dynafit global fit)
Type: biochemical, DEN2V (dengue virus serotype 2)
test context: 100 nM NS2B-NS3, cleavage buffer pH 9.5, 25° C., two inhibitor concentrations; read-out: Inhibition constant Ki2 (binding to enzyme-substrate ES complex)
outcome measure: log10 of Ki (log10 of the value in µM)
Plainly stated, the numbers are log10 of Ki given in µM.

Query block: What reported log10 of Ki corresponds to `Cc1ccn2c(=O)cc(COc3cc(NC(=O)Nc4ccc5c(c4)OCCO5)ccc3C)nc2c1` on DENV NS2B-NS3 protease (Dengue virus type 2, UniProt P29990)?
Result block: 0.60

Query block: Could you share what log10 of Ki was measured for `O=C(Nc1cccc(-c2nnc(Cc3ccc4c(c3)OCO4)o2)c1)Nc1ccc2c(c1)CCC2` , tested on DENV NS2B-NS3 protease (Dengue virus type 2, UniProt P29990)?
Result block: 0.60

Query block: Entry `Cc1ccc(-n2ncc3c2CC(C)(C)C[C@@H]3NC(=O)c2cn(C)c3ccccc3c2=O)cc1` , system DENV NS2B-NS3 protease (Dengue virus type 2, UniProt P29990): what log10 of Ki was measured?
Result block: 2.62

Query block: Return log10 of Ki measured with DENV NS2B-NS3 protease (Dengue virus type 2, UniProt P29990) given this compound: `NS(=O)(=O)c1cccc(-c2ccc([C@H]3Nc4ccccc4-c4nc5ccccc5n43)o2)c1`
Result block: 1.75

Query block: API: value(readout= log10 of Ki, system= DENV NS2B-NS3 protease (Dengue virus type 2, UniProt P29990), query= `Cc1ccc(S(=O)(=O)Nc2ccc(Cn3cnc(-c4nc(-c5cccc(C)c5)no4)c3)cc2)cc1` )
Result block: 1.32

Query block: What value of log10 of Ki on DENV NS2B-NS3 protease (Dengue virus type 2, UniProt P29990) does `Cn1c(=O)c2cc3ccccc3nc2c2c(=O)n(-c3ccccc3)c(=O)n(-c3ccccc3)c21` have?
Result block: 1.45

Query block: What is its log10 of Ki for DENV NS2B-NS3 protease (Dengue virus type 2, UniProt P29990)? Entry: `c1ccc2c(-c3nnc(-c4ccc5nccnc5c4)o3)cccc2c1`
Result block: 1.65

---

tested target: DENV NS2B-NS3 protease (Dengue virus type 2)
Construct: plasmid construct CF40-Gly-NS3pro185; made in house; host or cells: E. coli
test description: NS2B-NS3 protease steady-state kinetic inhibition assay (Boc-GRR-AMC substrate, Dynafit global fit)
Type: biochemical, DEN2V (dengue virus serotype 2)
test context: Inhibition constant Ki1 (competitive component, binding to enzyme), 100 nM NS2B-NS3, cleavage buffer pH 9.5, 25° C., two inhibitor concentrations
Can you tell me Ki for the items I'm about to list?
Give the number first and the unit second.

Query block: So what Ki did c1ccc(CSc2nnc3nc4c5ccccc5c5ccccc5c4nn23)cc1 [ZINC03120327] get with DENV NS2B-NS3 protease (Dengue virus type 2)?
Result block: 42 µM

Query block: Find the measured Ki: item O=C1[C@H]2CSC3(C(=O)c4ccccc4C3=O)N2C(=O)[C@H]2CSC3(C(=O)c4ccccc4C3=O)N12 [ZINC03129319] , target or system DENV NS2B-NS3 protease (Dengue virus type 2).
Result block: 92 µM

---

tested target: DENV NS2B-NS3 protease (Dengue virus type 2, UniProt P29990)
Construct: plasmid construct CF40-Gly-NS3pro185; made in house; host or cells: E. coli
test description: NS2B-NS3 protease steady-state kinetic inhibition assay (Boc-GRR-AMC substrate, Dynafit global fit)
Format: biochemical, DEN2V (dengue virus serotype 2)
test context: Inhibition constant Ki3 (binding to ES2 complex), 100 nM NS2B-NS3, cleavage buffer pH 9.5, 25° C., two inhibitor concentrations
Experimental: The DEN2V protease (plasmid construct CF40-Gly-NS3pro185 (Li et al., The Journal of Biological Chemistry, 280, 28766-28774, 2005)) was expressed in E. coli largely following the previously described protocol (Li et al., The Journal of Biological Chemistry, 280, 28766-28774, 2005), although cell growth was continued for 6 hrs at 25° C. following addition of 0.4 mM IPTG (isopropyl-D-thiogalactopyranoside). […]
outcome measure: pKi
pKi field: float, defined as -log10 of concentration (mol/L).

Query block: Request: pKi, test system DENV NS2B-NS3 protease (Dengue virus type 2, UniProt P29990), entry `O=C1[C@H]2CSC3(C(=O)c4ccccc4C3=O)N2C(=O)[C@H]2CSC3(C(=O)c4ccccc4C3=O)N12`
Result block: 4.70
